# System: adrenergic, beta-2 (human) (Homo sapiens, UniProt P07550)
# Construct: endogenous in cells; host or cells: HL-60 (human promyelocytic leukemia cells)
# Sequence (P07550 whole entry): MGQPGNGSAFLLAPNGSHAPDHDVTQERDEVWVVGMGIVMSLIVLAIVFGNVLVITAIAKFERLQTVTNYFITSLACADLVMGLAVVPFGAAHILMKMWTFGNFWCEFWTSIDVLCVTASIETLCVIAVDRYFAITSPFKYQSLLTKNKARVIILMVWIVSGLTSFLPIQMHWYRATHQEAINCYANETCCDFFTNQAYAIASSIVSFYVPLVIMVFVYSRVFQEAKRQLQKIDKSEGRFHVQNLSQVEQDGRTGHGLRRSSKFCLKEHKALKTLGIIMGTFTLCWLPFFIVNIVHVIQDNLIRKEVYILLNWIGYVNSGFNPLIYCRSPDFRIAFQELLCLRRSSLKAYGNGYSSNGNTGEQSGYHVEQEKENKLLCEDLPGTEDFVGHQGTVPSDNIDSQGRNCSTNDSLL
# Experimental Details: adrenergic, beta-2 (human) binding assay; HL-60 cells, isoproterenol, EIA read-out
# Format: cell-based
# Condition Summary: Table 3, 300 μM IBMX, 100 nM isoproterenol, 20 minutes at room temperature
Measure: IC50 (nM)
Please reply with the bare figure in nM and do not write the unit itself.

Some solved cases for reference:
{"Compound": "COCCOCCOCCOCCOCCOCCOCCOCCOC(CNC(C)(C)C)COc1nsnc1N1CCOCC1 (stereo not drawn) [Timolol Compound D]", "IC50 [nM]": 629}
{"Compound": "COCCOCCOCCOCCOCCOCCOCCOC(CNC(C)(C)C)COc1nsnc1N1CCOCC1 (stereo not drawn) [Timolol Compound C]", "IC50 [nM]": 603}

Could you now look at the following compound, please?
QUERY: adrenergic, beta-2 (human) (Homo sapiens, UniProt P07550) / IC50 / COCCOCCOCCOCCOCCOC(CNC(C)(C)C)COc1nsnc1N1CCOCC1 (stereo not drawn) [Timolol Compound B] : value?
RESULT: 1290

// data source = patent US10251959B2
